experiment: Hepatocyte stability, 1% final DMSO, 2 μM substrate (t1/2^a); type: in vitro ADME; details: human, cryopreserved hepatocytes, TA with 1% final DMSO, 2 μM substrate, samples at 0, 1, 2, 4 hours; read-out: human hepatocyte t½^a
observed-property: half-life at 2 μM

Previously resolved entries follow.
Dear colleague, I am looking for the recorded half-life at 2 μM of the following compound: CCC(Nc1nc(N)nc(N)c1C#N)c1nc2cccc(C)c2c(=O)n1-c1cc(F)cc(F)c1 (single isomer, unassigned) [Compound 19a] 3 to 6 h

Dear colleague, I am looking for the recorded half-life at 2 μM of the following compound: CC(Nc1nc(N)nc(N)c1C#N)c1nc2cccc(Cl)c2c(=O)n1-c1cc(F)cc(C#N)c1 (single isomer, unassigned) [Compound 20a] 6 to 10 h

The record that follows has no half-life at 2 μM shown yet.
Dear colleague, I am looking for the recorded half-life at 2 μM of the following compound: Cc1ccc(F)c2nc(C(C)Nc3nc(N)nc(N)c3C#N)n(-c3cc(F)cc(F)c3)c(=O)c12 (single isomer, unassigned) [Compound 25a] 1 to 3 h
